Target chain: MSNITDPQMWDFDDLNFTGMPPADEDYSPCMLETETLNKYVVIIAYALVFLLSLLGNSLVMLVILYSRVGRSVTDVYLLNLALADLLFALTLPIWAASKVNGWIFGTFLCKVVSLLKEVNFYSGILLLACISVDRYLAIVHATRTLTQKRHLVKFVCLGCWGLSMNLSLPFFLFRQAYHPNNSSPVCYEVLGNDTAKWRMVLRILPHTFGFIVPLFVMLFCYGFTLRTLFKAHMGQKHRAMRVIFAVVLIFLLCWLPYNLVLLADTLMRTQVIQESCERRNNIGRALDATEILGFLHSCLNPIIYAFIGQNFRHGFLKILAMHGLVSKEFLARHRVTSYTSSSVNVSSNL
Quantity name: IC50
// unit must come after the numeric part

// IC50 value for C[C@H](CO)Nc1nc(SCc2cccc(Cl)c2F)nc2[nH]c(=O)sc12 : 251 nM

----------
Target entity: CCR4 (Homo sapiens, UniProt P51679)
Sequence (P51679 1-360): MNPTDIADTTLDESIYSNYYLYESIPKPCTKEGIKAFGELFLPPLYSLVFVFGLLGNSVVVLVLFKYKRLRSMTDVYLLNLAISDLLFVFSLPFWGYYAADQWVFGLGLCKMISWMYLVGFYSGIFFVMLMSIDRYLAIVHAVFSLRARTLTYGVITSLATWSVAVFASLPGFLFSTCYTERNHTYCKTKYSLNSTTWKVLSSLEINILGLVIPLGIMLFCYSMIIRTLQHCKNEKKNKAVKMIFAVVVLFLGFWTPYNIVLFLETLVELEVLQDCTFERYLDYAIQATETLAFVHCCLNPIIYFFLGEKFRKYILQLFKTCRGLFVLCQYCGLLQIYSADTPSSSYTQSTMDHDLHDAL
Quantity name: IC50 (µM)
Numbers only; they are read as µM.

Memo: C[C@H](CO)Nc1nc(SCc2cccc(Cl)c2F)nc2[nH]c(=O)sc12 , reported IC50: 7.94

----------
Target entity: CX3CR1 (Homo sapiens, UniProt P49238)
Sequence (P49238 whole entry): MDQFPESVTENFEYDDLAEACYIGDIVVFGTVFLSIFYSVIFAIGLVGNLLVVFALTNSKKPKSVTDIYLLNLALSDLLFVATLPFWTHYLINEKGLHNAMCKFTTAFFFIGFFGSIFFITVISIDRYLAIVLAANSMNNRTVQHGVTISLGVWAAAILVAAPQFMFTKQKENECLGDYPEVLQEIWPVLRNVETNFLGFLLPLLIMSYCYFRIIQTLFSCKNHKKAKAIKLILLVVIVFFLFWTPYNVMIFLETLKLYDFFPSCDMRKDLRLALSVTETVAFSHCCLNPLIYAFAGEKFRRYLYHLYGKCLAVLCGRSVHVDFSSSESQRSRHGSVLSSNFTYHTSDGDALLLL
Quantity name: pIC50
# pIC50: negative log10 of molar concentration; output just the value

# compound C[C@H](CO)Nc1nc(SCc2cccc(Cl)c2F)nc2[nH]c(=O)sc12 [Compound A] ; its pIC50 = 6.60

----------
Target entity: CCR2b (Homo sapiens)
Sequence (P41597 1-360 isoform P41597-2): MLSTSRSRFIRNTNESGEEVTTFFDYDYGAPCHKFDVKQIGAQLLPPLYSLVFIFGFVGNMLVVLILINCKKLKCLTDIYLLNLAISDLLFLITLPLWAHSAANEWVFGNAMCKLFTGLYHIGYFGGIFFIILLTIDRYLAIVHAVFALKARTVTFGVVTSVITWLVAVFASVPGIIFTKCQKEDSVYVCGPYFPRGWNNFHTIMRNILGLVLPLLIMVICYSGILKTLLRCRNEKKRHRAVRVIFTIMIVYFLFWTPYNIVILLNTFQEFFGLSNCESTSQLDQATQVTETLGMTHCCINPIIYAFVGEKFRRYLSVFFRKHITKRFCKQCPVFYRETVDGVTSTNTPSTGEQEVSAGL
Test protocol: Chemokine receptor panel (assays similar to Example 1 and 2), CCR2b
Format: binding
Quantity name: IC50

Form field IC50, entry C[C@H](CO)Nc1nc(SCc2cccc(Cl)c2F)nc2[nH]c(=O)sc12 : 158 nM
